experiment_notes: Cytotoxicity assay (Cell-titer-GLO Luminescent Cell Viability Assay)
Type: cell-based, human
condition_label: human, HepG2-NTCP cells; HepG2-NTCP, cell viability 24 h post-treatment
observation_type: IC50 at 24 h (µM)
Write the answer as a number in µM, unit excluded.

Could you tell me which IC50 at 24 h is on file for Cn1cc(-c2ccc3occ(-c4cccc(-c5ccncc5)c4)c3n2)cn1 [MU1210] ? 16.7

###

Quick reference: pIC50 of the listed items.
System: HepG2-NTCP cells
experiment_notes: Cytotoxicity assay (Cell-titer-GLO Luminescent Cell Viability Assay)
Type: cell-based, human
pIC50: −log10 of the molar value.

>  <test_smiles>
CN(C)c1nc2c(Br)c(Br)c(Br)c(Br)c2[nH]1

>  <pIC50>
< 3.30

$$$$

Could you tell me which pIC50 is on file for Nc1cc(Nc2ccc(S(N)(=O)=O)cc2)ncn1 ? < 3.30
